Molecular target: Fibroblast growth factor receptor 2 (Homo sapiens) (UniProt P21802);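 further: reported figure is a mean percent inhibition of FGFR2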
Sequence (P21802 22-821 limits assumed): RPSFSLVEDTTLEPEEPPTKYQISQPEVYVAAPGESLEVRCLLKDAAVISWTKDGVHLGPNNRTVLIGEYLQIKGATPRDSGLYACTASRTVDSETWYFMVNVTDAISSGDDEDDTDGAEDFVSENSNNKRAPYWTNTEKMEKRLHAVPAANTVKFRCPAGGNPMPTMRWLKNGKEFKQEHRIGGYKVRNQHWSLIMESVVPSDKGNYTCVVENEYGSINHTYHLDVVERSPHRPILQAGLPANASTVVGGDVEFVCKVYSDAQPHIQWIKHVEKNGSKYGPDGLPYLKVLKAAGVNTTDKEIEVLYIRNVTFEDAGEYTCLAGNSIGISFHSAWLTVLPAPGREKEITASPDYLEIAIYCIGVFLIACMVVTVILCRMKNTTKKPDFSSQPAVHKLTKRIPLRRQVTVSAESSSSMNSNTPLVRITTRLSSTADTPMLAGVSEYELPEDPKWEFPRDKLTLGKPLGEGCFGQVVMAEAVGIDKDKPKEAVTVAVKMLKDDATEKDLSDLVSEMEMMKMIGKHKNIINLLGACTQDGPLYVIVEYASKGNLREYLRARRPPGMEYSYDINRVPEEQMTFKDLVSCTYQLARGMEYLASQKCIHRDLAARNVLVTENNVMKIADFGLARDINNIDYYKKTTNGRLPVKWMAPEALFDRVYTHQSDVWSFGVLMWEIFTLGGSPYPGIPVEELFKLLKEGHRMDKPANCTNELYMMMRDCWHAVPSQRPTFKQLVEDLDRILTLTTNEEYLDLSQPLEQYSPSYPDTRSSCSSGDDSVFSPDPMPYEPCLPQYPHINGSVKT
Conditions: at 1 µM
Measured Quantity: inhibition
The reply should consist of the numeric value with the unit placed after it.

Examples from the recorded data:
CCc1cccc(CC)c1/C=C/c1cncc(C(=O)NC)c1	9.23%
Fc1ccc(-c2ncn(CCCN3CCOCC3)c2-c2ccncc2)cc1	2.45%

Lookup: Please report the measured inhibition for COc1ccc2cc(-c3c(-c4ccncc4)nc(-c4ccc(S(C)(=O)=O)cc4C)n3C)ccc2c1
Found: 6.16%

Lookup: Read off the recorded inhibition for CCS(=O)(=O)c1ccc(OC)c(Nc2ncc(-c3cccc(-c4ccccc4F)c3)o2)c1
Found: 60.6%

Lookup: In one line, give reported inhibition of the entry CNC(=O)c1cncc(/C=C/c2c(C)cccc2C)c1 .
Found: -2.09%

Lookup: Give inhibition for the following molecule: Fc1ccc(-c2ncn(C3CCNCC3)c2-c2ccnc(Oc3ccc(Oc4ccccc4)cc3)n2)cc1
Found: 5.56%

Lookup: State its inhibition for this molecule: COc1cc(Nc2ncc3c(C)nc(-c4cccc(Oc5ccccc5)c4)n3n2)cc(OC)c1OC
Found: 5.14%

Lookup: # return recorded inhibition for entry C/C(Nc1ccc(S(N)(=O)=O)cc1)=C1/C(=O)Nc2ccccc21
Found: 21.1%

Lookup: Indicate the recorded inhibition value for this molecule: Cc1ccc(C(=O)NC(C)C)cc1-c1ccc(C(=O)NCC2CC2)cc1
Found: -3.57%

Lookup: Using known records, supply inhibition for NC(=O)c1ccc(Oc2nccc(-c3c(-c4ccc(F)cc4)ncn3C3CCNCC3)n2)cc1
Found: 8.04%

Origin of values: ChEMBL document CHEMBL1961873
